Assay: A CellTox Green Cytotoxicity Assay to monitor cytotoxicity in HEK293 cells - 40 hour (AID 1224871); also: nearly all actives have a fitted effect of over 45% in size
Settings: CellTox Green fluorescence; series mostly up to 76.8 µM
Records with an inconclusive call do not appear. Calls of active or inactive are those of the source. Calls follow the shape of the dose curve; as a rule, active = well fitted activation curve with a large enough effect in the repeat runs; inconclusive = weak or mixed curves; inactive = flat fitted curve, though single readings scatter.
Endpoint name: outcome

Solved cases (4 shown):
>>> assay_result("C[Si](C)O[Si](C)(C)O[Si](C)(C)O[Si](C)C")
"inactive"
>>> assay_result("Cl/C(=C\\n1cncn1)c1ccc(Cl)cc1Cl")
"inactive"
>>> assay_result("CC(C)CCCCCCOC(=O)c1ccc(C(=O)OCCCCCCC(C)C)c(C(=O)OCCCCCCC(C)C)c1")
"inactive"
>>> assay_result("CCCCCCCCCCCCCCCBr")
"inactive"

Exercise: Endpoint output: outcome of CC(C)c1cccc(C(C)C)c1NC(=O)NS(=O)(=O)c1cc(C(C)(C)O)co1 . Value?
Solution: inactive

Exercise: Endpoint output: outcome of CCc1nn(C2CCCCC2)c2cc(C3(C#N)CCC(C(=O)O)CC3)ccc12 (configuration not stated) . Value?
Solution: inactive

Exercise: Endpoint output: outcome of O=S(=O)(O)c1ccc(O)c2ncccc12 . Value?
Solution: inactive

###

Assay: qHTS assay to identify small molecule agonists of the AP-1 signaling pathway (AID 1159526)
Settings: ME-180 (cervical carcinoma) AP-1-bla reporter, beta-lactamase FRET ratio, 5 h; series mostly up to 76.8 µM
Results filed as inconclusive are left out. Calls of active or inactive are those of the source. Calls come from the whole dose curve.
Lab note: assign the record to one of active, inactive

>>> label("O=C(O)c1cn(C2CC2)c2cc(Cl)c(F)cc2c1=O")
"inactive"
>>> label("C1=Cc2ccccc2C1")
"inactive"
>>> label("CN(C)CC[C@@H](c1ccc(Br)cc1)c1ccccn1")
"inactive"
>>> label("CCN1CCC[C@H]1CNC(=O)c1c(OC)ccc(Br)c1OC")
"inactive"
>>> label("CCCCOc1ccc(CC(=O)NO)cc1")
"inactive"

Exercise: Please state the recorded outcome for this compound: COCCO
Solution: inactive

Exercise: Please state the recorded outcome for this compound: CCC(=O)OC(C)(C)C1CC=C(C)CC1 (centres undefined)
Solution: inactive

Exercise: Please state the recorded outcome for this compound: CC(C(=O)O)c1ccc(C(=O)c2ccccc2)s1 (centres undefined)
Solution: inactive

Exercise: Please state the recorded outcome for this compound: CCCCCCCCC(CO)CCCCCC (centres undefined)
Solution: inactive

Exercise: Please state the recorded outcome for this compound: CC(=O)NCCCS(=O)(=O)O
Solution: inactive

Exercise: Please state the recorded outcome for this compound: CC(C)CC=O
Solution: inactive

Exercise: Please state the recorded outcome for this compound: CC(C)(C)C(=O)OCOP(=O)(COCCn1cnc2c(N)ncnc21)OCOC(=O)C(C)(C)C
Solution: inactive

###

Target: Nuclear receptor subfamily 1 group I member 2 (Homo sapiens) (UniProt O75469)
Sequence (O75469 whole entry, looked up): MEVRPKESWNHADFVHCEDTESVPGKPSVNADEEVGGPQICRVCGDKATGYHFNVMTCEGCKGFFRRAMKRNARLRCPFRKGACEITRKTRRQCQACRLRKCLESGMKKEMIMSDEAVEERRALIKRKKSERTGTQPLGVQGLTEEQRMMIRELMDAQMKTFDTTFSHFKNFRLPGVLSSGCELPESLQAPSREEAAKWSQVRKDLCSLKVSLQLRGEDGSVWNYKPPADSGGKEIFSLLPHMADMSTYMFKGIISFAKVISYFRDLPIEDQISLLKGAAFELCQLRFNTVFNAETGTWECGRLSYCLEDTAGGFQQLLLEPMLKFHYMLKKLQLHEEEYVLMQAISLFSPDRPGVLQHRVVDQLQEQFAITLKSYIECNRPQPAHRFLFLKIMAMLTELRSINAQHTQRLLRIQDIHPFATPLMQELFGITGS
Experiment: Human pregnane X receptor (PXR) small molecule agonists, qHTS assay (AID 1346982); also: nearly all actives have a fitted effect of over 35% in size
Conditions: PXR-Luc HepG2, CYP3A4 luciferase reporter, 24 h; series mostly up to 92.4 µM
Results filed as inconclusive are left out. Calls of active or inactive are those of the source. Calls come from the whole dose curve; as a rule, active = well fitted activation curve with a large enough effect in the repeat runs; inconclusive = weak or mixed curves; inactive = no such curve, though single readings can be large or run the other way.
Lab note: assign the record to one of active, inactive

>>> label("CC(=O)O[C@H]1C[C@@H]2CC[C@@H]3[C@H](CC[C@@]4(C)[C@H]3C[C@H]([N+]3(C)CCCCC3)[C@@H]4OC(C)=O)[C@@]2(C)C[C@@H]1N1CCCCC1")
"inactive"

Exercise: Please state the recorded outcome for this molecule: Nc1ccc(C(=O)Nc2ccccc2N)cc1
Solution: active

Exercise: Please state the recorded outcome for this molecule: CCC(=O)OC(C)(C)C1CC=C(C)CC1 (stereo not drawn)
Solution: inactive

Exercise: Please state the recorded outcome for this molecule: O=C1Nc2cc(Cl)ccc2Oc2ccccc21
Solution: inactive

Exercise: Please state the recorded outcome for this molecule: O=C(CC(=O)c1ccccc1)c1ccccc1
Solution: active

Exercise: Please state the recorded outcome for this molecule: CCN(CC)C(C)=O
Solution: inactive

Exercise: Please state the recorded outcome for this molecule: CCCCOc1ccc(CC(=O)NO)cc1
Solution: inactive

Exercise: Please state the recorded outcome for this molecule: CC(C)NCC(O)c1cc(O)cc(O)c1 (stereo not drawn)
Solution: inactive

Exercise: Please state the recorded outcome for this molecule: C1=Cc2ccccc2C1
Solution: inactive

Exercise: Please state the recorded outcome for this molecule: CCCCCCOC(=O)CCC
Solution: inactive

Values were extracted from PubChem BioAssay (Tox21).
